- TARGET: T1, S247A
- T1 construct: % monomer 94.87; also called MICA*008.mIgG2a S247A
- T1 chain: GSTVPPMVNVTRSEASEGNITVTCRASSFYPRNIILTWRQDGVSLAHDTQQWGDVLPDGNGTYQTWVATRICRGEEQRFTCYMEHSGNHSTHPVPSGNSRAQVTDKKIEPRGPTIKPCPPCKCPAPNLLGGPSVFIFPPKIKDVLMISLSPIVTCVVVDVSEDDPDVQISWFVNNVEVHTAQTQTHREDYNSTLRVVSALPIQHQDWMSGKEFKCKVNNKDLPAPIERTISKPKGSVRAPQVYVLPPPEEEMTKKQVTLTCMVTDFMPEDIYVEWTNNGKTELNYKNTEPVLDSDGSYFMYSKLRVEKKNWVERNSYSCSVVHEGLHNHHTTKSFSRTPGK
- TEST PROTOCOL: SPR, Fab over captured MICA*008.mIgG2a Ala variant; KD relative to wild type
Below, each entry is listed alongside its reported fold-decrease in affinity.
# print the numeric value only

Here are 3 binders together with their reported answers.
2E5.2.3 Fab (Fab, V domains shown) VH: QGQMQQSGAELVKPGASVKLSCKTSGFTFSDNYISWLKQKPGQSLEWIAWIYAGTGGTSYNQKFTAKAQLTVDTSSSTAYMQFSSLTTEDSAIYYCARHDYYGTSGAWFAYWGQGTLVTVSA VL: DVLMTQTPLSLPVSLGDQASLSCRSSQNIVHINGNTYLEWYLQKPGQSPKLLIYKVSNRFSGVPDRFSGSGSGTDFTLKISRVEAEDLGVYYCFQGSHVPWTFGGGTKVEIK :: 1.1
6F8.7 Fab (Fab, V domains shown) VH: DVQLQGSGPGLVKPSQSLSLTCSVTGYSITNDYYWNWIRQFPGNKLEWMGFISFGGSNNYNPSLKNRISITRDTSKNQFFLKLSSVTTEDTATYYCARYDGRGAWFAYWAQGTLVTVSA VL: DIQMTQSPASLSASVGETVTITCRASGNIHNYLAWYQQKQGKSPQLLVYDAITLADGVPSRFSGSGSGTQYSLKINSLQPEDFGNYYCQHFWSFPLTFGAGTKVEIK :: 0.9
1D5 Fab (Fab, V domains shown, Expressed in E. coli as chimera of murine variable and human constant domains; not shown: human IgG1 CH1 constant domain; human kappa CL constant domain) VH: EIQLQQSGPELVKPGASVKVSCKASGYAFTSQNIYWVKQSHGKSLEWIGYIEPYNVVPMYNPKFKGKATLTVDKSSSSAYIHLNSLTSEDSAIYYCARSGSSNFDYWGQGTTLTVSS VL: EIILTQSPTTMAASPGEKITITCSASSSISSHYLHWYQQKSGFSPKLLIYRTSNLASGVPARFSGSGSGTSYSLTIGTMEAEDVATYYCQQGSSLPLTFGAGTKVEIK :: 0.2

Input: For the binder shown here, 7D4.6 Fab (Fab, V domains shown) VH: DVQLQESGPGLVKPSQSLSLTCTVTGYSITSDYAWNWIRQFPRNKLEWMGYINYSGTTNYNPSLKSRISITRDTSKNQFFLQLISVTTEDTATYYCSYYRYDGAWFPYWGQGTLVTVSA VL: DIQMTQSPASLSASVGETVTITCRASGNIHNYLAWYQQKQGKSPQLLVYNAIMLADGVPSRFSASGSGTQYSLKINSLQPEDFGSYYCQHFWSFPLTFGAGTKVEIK , give the reported fold-decrease in affinity.
Output: 0.8

# credit: patent US20200055939A1
